# Test system: platelet aggregation
# TEST_METHOD_NOTES: Inhibitory action on collagen-induced platelet aggregation in platelet rich plasma
# Assay type: cell-based
# DETAILS: concentration giving 50% inhibition of reaction rate of collagen-induced platelet aggregation, rat platelet rich plasma, 30° C; read-out: Inhibitory Action ID50
Quick reference for pIC50 among some compounds
pIC50 is defined as minus the log10 of a concentration measured in mol/L.

Consider the following illustrative entries.
CN1CCN(C(=O)c2cccs2)C1=NC(c1ccccc1)c1ccccc1; 3.89
CN1CCN(C(=O)c2cccnc2)C1=NC(c1ccccc1)c1ccccc1; 3.32
CN1CCN=C1CC(c1ccccc1)c1ccccc1; 3.92
CN1CCNC1=NC(c1ccccc1)c1ccccc1 [Compound A, 1-methyl-2-benzhydryliminoimidazolidine]; 3.49

Given `c1ccc(C(CC2=NCCN2)c2ccccc2)cc1` , state its recorded pIC50. 4.30

// repeat for `CN1CCN(C(=O)c2ccccc2)C1=NC(c1ccccc1)c1ccccc1` and report 3.57

====

# TEST_METHOD_NOTES: Acute toxicity in rats by oral administration
# DETAILS: rat, in vivo, male Donryu rats, mortality on the 7th day, Litchfield and Wilcoxon
# Procedure: Acute Toxicity tests were carried out in rats by oral administration. Each LD50 was calculated from the mortality percentage on the 7th day according to the method of Litchfield and Wilcoxon. Ten male rats of the Donryu strain were used at each dose level.
Readings of LD50 at 168 h for the listed molecules
Please give a number only; it is taken to be in mg/kg.

CN1CCNC1=NC(c1ccccc1)c1ccccc1 [Compound A, 1-methyl-2-benzhydryliminoimidazolidine]; 660

# next molecule below
Tell me the measured LD50 at 168 h of c1ccc(C(CC2=NCCN2)c2ccccc2)cc1 [Compound B, 2-(2,2-diphenylethyl)-2-imidazoline] , please. 562

====

# Test system: serum lactate
# TEST_METHOD_NOTES: Effect on serum lactate level
# Format: in vivo, male Wister rat
# DETAILS: 200 mg/kg daily oral for 4 days; 76 hrs, 3 hours after the last dosing
PROPERTY_NAME: Percent of Initial Serum Lactate, 76 hrs

Here is how some compounds turned out for Percent of Initial Serum Lactate, 76 hrs.
c1ccc(C(CC2=NCCN2)c2ccccc2)cc1 [Compound B, 2-(2,2-diphenylethyl)-2-imidazoline]; 113.3%
CN1CCCC1=NC(c1ccccc1)c1ccccc1 [Compound Z, reference compound]; 218.8%
CN1CCNC1=NC(c1ccccc1)c1ccccc1 [Compound A, 1-methyl-2-benzhydryliminoimidazolidine]; 94.6%

--- query ---
Which Percent of Initial Serum Lactate, 76 hrs is reported for this compound? [H]/N=C(/N)N/C(=N/[H])NCCc1ccccc1 [Phenformin, phenformin, reference compound] 283.6%

====

# System: serum lactate
# TEST_METHOD_NOTES: Effect on serum lactate level
# Format: in vivo, male Wister rat
# DETAILS: 200 mg/kg daily oral for 4 days; 24 hrs, just before the 2nd dosing
Catalogue of Percent of Initial Serum Lactate, 24 hrs values
The response must be a number in % with no trailing unit.

// known answers, use as guide
CN1CCNC1=NC(c1ccccc1)c1ccccc1 [Compound A, 1-methyl-2-benzhydryliminoimidazolidine]; 114.9
[H]/N=C(/N)N/C(=N/[H])NCCc1ccccc1 [Phenformin, phenformin, reference compound]; 196.6
CN1CCCC1=NC(c1ccccc1)c1ccccc1 [Compound Z, reference compound]; 152.1

Consider now this further compound.
Any idea what Percent of Initial Serum Lactate, 24 hrs was measured for `c1ccc(C(CC2=NCCN2)c2ccccc2)cc1` ? 139.6

src = patent US4136188A
